Value source: paper PMC10397247

target.under.test: T1, 4H170-bA
T1 chain: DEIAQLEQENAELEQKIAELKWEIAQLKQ
assay.details: two-hybrid library CCNG1;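 further: natural log of median RNA to DNA barcode read ratio; higher means stronger binding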
quantity.kind: interaction score
Note: the reply should be a number with no unit written.

GET /value?item= DEIAQLEQENAELEQKIAELKWEIAQLKQ [4H170-bA] &field=interaction score returns 0.744

What the record says about DEIAQLEQEIAELKQKIAELKWKNAQLKQ [4H112-bA] : interaction score is 0.905

The reported value for DENAQLEQEIAELEQKNAELKWEIAQLEQ [4H1081-bA] in terms of interaction score is -0.98

For this binder ( DEIAQLEQEIAELKQKNAELEWKIAQLKQ [4H118-bA] ), measured interaction score is -0.0431

get_value(item= DENAQLEQENAELEQEIAELEWKIAQLKQ [4H1158-bA] , readout=interaction score) returns -1.67
